These entries and their values trace back to paper PMC3685885.

Tested system: human CB2Rs (Homo sapiens)
Assay text: Inhibition of forskolin-stimulated adenylyl cyclase
Type: cell-based
Measurement context: 10 µM, intact CHO-hCB2 cells; mean ± SEM
Quantity name: CB2R Efficacy (EMAX) AC-Inhibition

| Molecule | Test value |
| --- | --- |
| CCCCn1cc(C(=O)c2cccc3ccccc23)c2ccccc21 [JWH-073, 1-butyl-3-(1-naphthoyl)indole] | 62.6 ± 2.7 (3) % Inhibition |
| CCCCCn1cc(C(=O)c2cccc3ccccc23)c2ccccc21 [JWH-018, 1-pentyl-3-(1-naphthoyl)indole] | 59.3 ± 4.0 (4) % Inhibition |
| O=C(c1cccc2ccccc12)c1cn(CCCCO)c2ccccc12 [JWH-073-M5] | 54.2 ± 5.9 (4) % Inhibition |
| O=C(c1cccc2ccccc12)c1cn(CCCCCO)c2ccccc12 [JWH-018-M5] | 53.5 ± 4.6 (4) % Inhibition |

###

Tested system: human CB2Rs (Homo sapiens, UniProt P34972)
Sequence (P34972 whole entry): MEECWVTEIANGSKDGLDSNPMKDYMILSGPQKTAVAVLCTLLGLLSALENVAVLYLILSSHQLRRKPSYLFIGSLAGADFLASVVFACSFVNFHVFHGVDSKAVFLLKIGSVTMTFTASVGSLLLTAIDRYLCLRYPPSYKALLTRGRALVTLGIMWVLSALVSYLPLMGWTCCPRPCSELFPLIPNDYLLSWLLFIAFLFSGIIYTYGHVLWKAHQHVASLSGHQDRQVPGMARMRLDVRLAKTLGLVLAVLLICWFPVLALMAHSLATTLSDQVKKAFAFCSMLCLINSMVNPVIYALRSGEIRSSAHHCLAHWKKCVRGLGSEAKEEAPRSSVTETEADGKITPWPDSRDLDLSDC
Assay text: [3H]CP-55,940 competition receptor binding in CHO-hCB2 membranes

| Test smiles | Scale unit | Ki |
| --- | --- | --- |
| CCCCCn1cc(C(=O)c2cccc3ccccc23)c2ccccc21 | nM | 5.6 |

###

Tested system: human CB2Rs (Homo sapiens, UniProt P34972)
Assay text: [3H]CP-55,940 competition receptor binding in CHO-hCB2 membranes
Measurement context: read-out: CB2R Affinity (Ki); [3H]CP-55,940 0.2 nM, CHO-hCB2 membranes; mean ± SEM
pKi: −log10 of the molar value.
Quantity name: pKi

| Test smiles | Qual | Test value |
| --- | --- | --- |
| O=C(c1cccc2ccccc12)c1cn(CCCCO)c2ccccc12 | = | 7.02 |
| O=C(c1cccc2ccccc12)c1cn(CCCCCO)c2ccccc12 | = | 7.32 |
| O=C(O)CCCn1cc(C(=O)c2cccc3ccccc23)c2ccccc21 | < | 5.00 |
| O=C(O)CCCCn1cc(C(=O)c2cccc3ccccc23)c2ccccc21 | < | 5.00 |

###

Attribute: CB2R Efficacy (EMAX) G-protein Activation
Tested system: human CB2Rs (Homo sapiens)
Assay text: [35S]GTPγS binding
Type: biochemical
Measurement context: 10 µM, [35S]GTPγS binding, CHO-hCB2 membranes; mean ± SEM
Quantity name: CB2R Efficacy (EMAX) G-protein Activation

| Compound | Test value |
| --- | --- |
| CCCCn1cc(C(=O)c2cccc3ccccc23)c2ccccc21 [JWH-073, 1-butyl-3-(1-naphthoyl)indole] | 40.1 ± 4.2 (3) fmole/mg |
| O=C(c1cccc2ccccc12)c1cn(CCCCCO)c2ccccc12 [JWH-018-M5] | 38.4 ± 8.5 (5) fmole/mg |
| O=C(c1cccc2ccccc12)c1cn(CCCCO)c2ccccc12 [JWH-073-M5] | 31.0 ± 1.0 (3) fmole/mg |
| CCCCCn1cc(C(=O)c2cccc3ccccc23)c2ccccc21 [JWH-018, 1-pentyl-3-(1-naphthoyl)indole] | 60.3 ± 11.4 (7) fmole/mg |

###

Attribute: pIC50
Tested system: human CB2Rs (Homo sapiens)
Assay text: Inhibition of forskolin-stimulated adenylyl cyclase
Assay type: cell-based
Measurement context: read-out: Potency for AC-Inhibition (IC50); intact CHO-hCB2 cells, 30 µM forskolin; mean ± SEM
pIC50: −log10 of the molar value.

| Test smiles | Tested system | pIC50 |
| --- | --- | --- |
| O=C(c1cccc2ccccc12)c1cn(CCCCO)c2ccccc12 | human CB2Rs (Homo sapiens) | 7.88 |
| O=C(c1cccc2ccccc12)c1cn(CCCCCO)c2ccccc12 | human CB2Rs (Homo sapiens) | 7.75 |
